protocol.description: chemical genetic growth profiling, strain panel (AID 1159580);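 note: tested at 20 µM; growth read once vehicle control cultures reached saturation at 30 °C; 1 = growth at the plate median or of vehicle wells; lower values mean less growth of the strain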
condition.description: S. cerevisiae deletion strains, growth OD, locus YGL240W, strain doc1, hits give low values
Out of some 5,500 compounds screened, about 2,000 (36%) were called active. Not shown: some 18% with an inconclusive outcome. The list shows a part of the results.
Overview of reported normalized growth across a group of compounds:
# respond with the number and nothing more

Some compounds with recorded normalized growth:
O=[N+]([O-])c1cccc2c(Br)[nH]nc12; 0.996
CN(C)CCOC(=O)COc1ccc(Cl)cc1; 0.967
CC(C)CCCC(C)C1CCC2C3CC[C@H]4CCCC[C@]4(C)C3CC[C@]12C (stereo partly specified); 1.05
Cc1ncc([N+](=O)[O-])n1CC(C)O (stereo unspecified); 0.995
CO[C@]12C[C@@H](COC(=O)c3cncc(Br)c3)CN(C)[C@@H]1Cc1cn(C)c3cccc2c13; 0.95

Look at this compound and give its reported normalized growth. COc1c(Cl)ccc(Cl)c1C(=O)O
0.961

---

protocol.description: chemical genetic growth profiling, strain panel (AID 1159580)
condition.description: S. cerevisiae deletion strains, growth OD, locus YDR001C, strain nth1, hits give low values
In all, about 5,500 compounds went through this assay and about 2,000 (36%) were called active. Not shown: some 18% with an inconclusive outcome. Some of the results follow.
property.label: normalized growth
The response must contain the number and no unit.

CNC(=O)Oc1ccc2c(c1)[C@]1(C)CCN(C)[C@@H]1N2C; 1.01
COc1cc([C@@H]2c3cc4c(cc3[C@H](OC(C)=O)[C@H]3COC(=O)[C@@H]23)OCO4)cc(OC)c1OC; 0.99
C[C@@H]1O[C@@H](O[C@H]2C[C@@H](O)[C@]3(CO)C4C(CC[C@]3(O)C2)[C@@]2(O)CC[C@H](C3=CC(=O)OC3)[C@@]2(C)C[C@H]4O)[C@H](O)[C@H](O)[C@H]1O (some centres not stated); 1.02
CCCCCC1C(=O)CCC1CC(=O)OC (configuration not stated); 0.984
S=P(N1CC1)(N1CC1)N1CC1; 1.01
COc1cc([C@H]2Oc3cc([C@H]4Oc5cc(O)cc(O)c5C(=O)[C@@H]4O)ccc3O[C@@H]2CO)ccc1O; 1.01

Now let's try a different one.
Would you mind telling me what normalized growth value was observed for CN(C)C(=O)Nc1ccc(Cl)c(Cl)c1 ?
0.99

---

protocol.description: chemical genetic growth profiling, strain panel (AID 1159580)
condition.description: S. cerevisiae deletion strains, growth OD, locus YEL003W, strain gim4, hits give low values
Screen size: about 5,500 compounds; about 2,000 (36%) were called active. Another 18% or so got no clear call; they are omitted. The list shows a part of the results.
Please note: normalized growth exactly at 1 is Not met. Only values below 1 get Met.

Record excerpt, results attached:
O=C(O)CCCOc1ccc(Cl)cc1Cl; Met
COc1c2ccccc2nc2occc12; Met

# input for lookup
Hello, I'm reviewing records and need to know if normalized growth of Nc1cc(C(Cl)=C(Cl)Cl)c(S(N)(=O)=O)cc1S(N)(=O)=O is below 1. Could you check?
Not met

---

Measured normalized growth values are reported for all entries that follow.
protocol.description: chemical genetic growth profiling, strain panel (AID 1159580)
condition.description: S. cerevisiae deletion strains, growth OD, locus YJR066W, strain TOR1 (second series), hits give low values
Screen size: about 5,500 compounds; about 2,000 (36%) were called active. Not shown: some 18% with an inconclusive outcome. The list shows a part of the results.
# print the numeric value only

Worked cases, normalized growth given:
O=C1/C(=C/c2ccc(C(F)(F)F)cc2)COc2ccccc21; 0.976
COc1ccc(CC2CCC(=NOC(=O)c3c(Cl)cccc3Cl)CC2)cc1 (stereo unspecified); 0.928
Oc1ccc(N=Nc2ccccn2)c(O)c1; 0.0985
O=S(=O)(Nc1ccc(Oc2ccc(OC(F)(F)F)cc2)cc1)c1cccc(Cl)c1; 0.92
O=C(CCn1c(=O)oc2ccccc21)Sc1ccc(Cl)cc1Cl; 0.197

Could you now look at the following compound, please?
// normalized growth lookup, key: COc1ccc(CC2CCC(=NOC(=O)c3ccc(C(C)(C)C)cc3)CC2)cc1 (stereo unspecified)
0.909

---

protocol.description: chemical genetic growth profiling, strain panel (AID 1159580)
condition.description: S. cerevisiae deletion strains, growth OD, locus YJL115W, strain asf1
In all, about 5,500 compounds went through this assay and about 2,000 (36%) were called active. Inconclusive results (about 18%) are left out. No stated cut-off is given here; in the data, active means normalized growth mostly below about 0.91 (no sharp cut-off); inconclusive means no clear call, values can overlap the other calls; inactive means mostly above about 0.92. The list shows a part of the results.
Answer with one of the outcomes yes (active), no (inactive)

Below are worked cases with known answers.
COc1cc(OC)c(OC)cc1C=O; no
CC1=C2[C@H]3OC(=O)[C@@H](C)[C@@H]3CC[C@@]2(C)C=CC1=O; no
Cc1ncc([N+](=O)[O-])n1CC(C)O (configuration not stated); no
C=C1C(C2(C)C=CC(=O)C(C)(C)C2CC(=O)OC)CC[C@@]2(C)[C@H](c3ccoc3)OC(=O)C3OC132 (some centres not stated); no
COc1cc([C@H]2Oc3cc([C@H]4Oc5cc(O)cc(O)c5C(=O)[C@@H]4O)ccc3O[C@@H]2CO)ccc1O; no
Nc1ccncc1; no
Nc1cc(-c2ccncc2)c[nH]c1=O; no
C[C@@H]1CC2C3C[C@H](F)C4=CC(=O)C=C[C@]4(C)[C@@]3(F)[C@@H](O)C[C@]2(C)[C@@]1(O)C(=O)COC(=O)C(C)(C)C (some centres not stated); no
C=C1C2CCC3(C)C(c4ccoc4)OC(=O)CC13OC1CC(OC(C)=O)C(C)(C)C(CC(=O)OC)C12C (configuration not stated); no
CCCCCC1C(=O)CCC1CC(=O)O (configuration not stated); no

Which outcome was entered for the molecule CN1CCN(C2=Nc3ccccc3Oc3ccc(Cl)cc32)CC1 in this test?
no

Recorded call for CC(=O)Nc1nnc(S(N)(=O)=O)s1 ?
no

Please share the test call associated with C=Cc1c(C)c2[n-]c1=Cc1[n-]c(c(CC)c1C)C=c1[n-]c3c(c1C)C(=O)C(C(=O)[O-])C=3c1[n-]c(c(C)c1CCC(=O)[O-])C=2.[Cu] (configuration not stated) .
yes

Recorded test outcome, item COc1ccc(C(=O)N2CCCC2=O)cc1
no

Hey, what did the test say about CC(=O)OCC(=O)[C@@]1(O)[C@H](OC(C)=O)CC2C3CCC4=CC(=O)C=C[C@]4(C)[C@@]3(F)[C@@H](O)C[C@@]21C (some centres not stated) ?
no

For S=P(N1CC1)(N1CC1)N1CC1 , which call appears in the assay record?
no

Outcome logged for COc1cc(S(C)=O)ccc1-c1nc2ncccc2[nH]1 (configuration not stated) in this assay:
no

---

protocol.description: chemical genetic growth profiling, strain panel (AID 1159580);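 note: tested at 20 µM; growth read once vehicle control cultures reached saturation at 30 °C; 1 = growth at the plate median or of vehicle wells; lower values mean less growth of the strain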
condition.description: S. cerevisiae deletion strains, growth OD, locus YDR388W
The campaign covered roughly 5,500 compounds. About 2,000 (36%) were called active. Not shown: some 18% with an inconclusive outcome. Cut-off read from the data, not from the text of the source: active = normalized growth mostly below about 0.91 (no sharp cut-off); inconclusive = no clear call, values can overlap the other calls; inactive = mostly above about 0.92. The list shows a part of the results.
Tick one outcome: 1.0 = active, 0.0 = inactive

CCCC(CCC)C(=O)O; 0.0
CCCCC[C@H](CC(=O)NO)C(=O)N[C@H](C(=O)N1CCC[C@H]1CO)C(C)C; 0.0
N[C@H](Cc1cc(I)c(Oc2ccc(O)c(I)c2)c(I)c1)C(=O)O; 0.0

Please indicate how the test categorized CN1CC(CNC(=O)OCc2ccccc2)CC2c3cccc4c3c(cn4C)CC21 (configuration not stated) .
0.0

So what was the verdict on CSc1ccc2c(c1)N(CCC1CCCCN1C)c1ccccc1S2 (configuration not stated) in this test?
1.0

Answer briefly: the call reported for CC[C@H](CCC(C)[C@H]1CCC2C3CCC4C[C@@H](O)CC[C@]4(C)C3CC[C@@]21C)C(C)C (some centres not stated) in this assay.
0.0

For Cc1cc(=O)oc2c(O)c(O)ccc12 , what call appears in the results of this test?
0.0

So what was the verdict on O=c1cc(-c2ccccc2)oc2cc(O)c(O)c(O)c12 in this test?
1.0

---

Listing of recorded normalized growth by entry.
protocol.description: chemical genetic growth profiling, strain panel (AID 1159580);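 note: tested at 20 µM; growth read once vehicle control cultures reached saturation at 30 °C; 1 = growth at the plate median or of vehicle wells; lower values mean less growth of the strain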
condition.description: S. cerevisiae deletion strains, growth OD, locus YLR342W, strain FKS1, hits give low values
In all, about 5,500 compounds went through this assay and about 2,000 (36%) were called active. Not shown: some 18% with an inconclusive outcome. The list shows a part of the results.
Just the number.

Would you mind telling me what normalized growth value was observed for O=c1cc(-c2ccccc2)oc2cc(O)c(O)cc12 ?
0.936

---

protocol.description: chemical genetic growth profiling, strain panel (AID 1159580);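 note: tested at 20 µM; growth read once vehicle control cultures reached saturation at 30 °C; 1 = growth at the plate median or of vehicle wells; lower values mean less growth of the strain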
condition.description: S. cerevisiae deletion strains, growth OD, locus YJL129C, strain trk1
The campaign covered roughly 5,500 compounds. About 2,000 (36%) were called active. Roughly 18% stayed inconclusive and do not appear here. Cut-off read from the data, not from the text of the source: active = normalized growth mostly below about 0.91 (no sharp cut-off); inconclusive = no clear call, values can overlap the other calls; inactive = mostly above about 0.92. This is one part of the list.
Respond with a class label; see active, inactive

C=Cc1c(C)c2[n-]c1=Cc1[n-]c(c(CC)c1C)C=c1[n-]c3c(c1C)C(=O)C(C(=O)[O-])C=3c1[n-]c(c(C)c1CCC(=O)[O-])C=2.[Cu] (stereo not given); active
CC[C@H](CCC(C)[C@H]1CCC2C3CCC4C[C@@H](O)CC[C@]4(C)C3CC[C@@]21C)C(C)C (stereo not given in full); inactive

Test call for this compound, please: S=P(N1CC1)(N1CC1)N1CC1
inactive

Lab log entry: C=C1C2=CC(=O)O[C@@H](c3ccoc3)[C@]2(C)CCC1[C@@]1(C)C=CC(=O)C(C)(C)[C@@H]1CC(=O)OC (stereo not given in full) — outcome as called in the assay?
inactive

Assay result, entry CCC(=O)Nc1ccc(Cl)c(Cl)c1 — outcome?
inactive

# fetch the recorded call for CCN(CC)C(C)CN1c2ccccc2Sc2ccccc21 (stereo not given) here
inactive

Record request — test call for C[C@H](N)[C@H](O)c1cccc(O)c1
inactive

# lookup: test call for C[C@@H](N)[C@@H](O)c1ccccc1
inactive

# outcome recorded in this test, key = CN(C)N=Nc1nc[nH]c1C(N)=O
inactive

// outcome(item) with item = CCOC(=O)[C@H](CCc1ccccc1)N[C@@H](C)C(=O)N1Cc2ccccc2C[C@H]1C(=O)O
inactive
